Target: T1, human CD22-ECD-His protein (human, UniProt P20273 20-687)
T1 construct: Made in house in HEK293E; also called hCD22-ECD-His; recombinant human CD22-ECD His protein; not shown: His tag
T1 sequence: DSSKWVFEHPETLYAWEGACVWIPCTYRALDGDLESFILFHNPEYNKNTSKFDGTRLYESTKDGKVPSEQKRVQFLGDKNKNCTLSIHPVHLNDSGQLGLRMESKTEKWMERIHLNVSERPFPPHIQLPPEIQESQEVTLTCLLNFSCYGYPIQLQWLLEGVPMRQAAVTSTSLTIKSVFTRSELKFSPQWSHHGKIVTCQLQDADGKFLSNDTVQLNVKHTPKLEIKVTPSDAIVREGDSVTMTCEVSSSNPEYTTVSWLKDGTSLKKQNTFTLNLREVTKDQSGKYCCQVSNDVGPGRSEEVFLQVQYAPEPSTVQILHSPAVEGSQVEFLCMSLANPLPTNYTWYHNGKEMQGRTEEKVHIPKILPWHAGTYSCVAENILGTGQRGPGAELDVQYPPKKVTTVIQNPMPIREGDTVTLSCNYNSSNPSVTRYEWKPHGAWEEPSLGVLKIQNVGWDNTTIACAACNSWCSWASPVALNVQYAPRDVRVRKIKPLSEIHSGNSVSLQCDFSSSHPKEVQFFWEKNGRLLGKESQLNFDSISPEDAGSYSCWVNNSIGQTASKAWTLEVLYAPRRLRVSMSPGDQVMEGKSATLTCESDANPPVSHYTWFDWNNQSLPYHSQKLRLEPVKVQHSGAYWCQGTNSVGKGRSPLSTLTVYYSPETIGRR
Assay: ELISA, Ab 10.00 nM
As shown below, each of these binders has a reported OD450 value.
Report as a plain number; the unit OD450 is understood.

binder | unit.abbreviation | OD450
F2.173.9 (antibody, human IgG1, lambda, V domains shown, Human-murine chimeric IgG1, lambda) VH: EVQLVESGGDLVKPGESLKLSCEASGFTFSNYAMSWVRQTPDRRLEWVATISSIGSFTYYSDSVKGRFTISRDNVKSTLHLQMNNLKSGDTAIYFCARLGVYFDSWGQGTTLTVSS VL: QLVLTQSSSASFSLGASAKLTCTLSSQHSTYTIEWYQQQPHKPPKFVMEIKKDGSHYTGDGIPDRFSGSSSGADRYLSISNIQPEDETIYICGVSDMIKDQFVYVFGGGTKVTVLG | OD450 | 1.97

-- ask Fill blank: measured OD450 of the binder F2.151.13 (antibody, human IgG1, lambda, V domains shown, Human-murine chimeric IgG1, lambda) VH: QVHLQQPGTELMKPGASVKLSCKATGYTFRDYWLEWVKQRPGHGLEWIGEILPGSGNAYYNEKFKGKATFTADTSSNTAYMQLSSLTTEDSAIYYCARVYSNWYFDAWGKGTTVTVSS VL: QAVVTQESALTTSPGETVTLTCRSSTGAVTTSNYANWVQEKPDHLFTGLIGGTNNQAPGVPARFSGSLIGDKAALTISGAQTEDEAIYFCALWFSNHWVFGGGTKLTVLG is ____.
-- reply 2.6

-- ask Moving on to F1.192.1 (antibody, human IgG1, kappa, V domains shown, Human-murine chimeric IgG1, kappa) VH: AVQLQQSGVELVRPGASVKLSCTGSDFNIKEDYIHWVKQRPEQGLEWIGWIDPENGDTEYASKFQGKATITADTSSNTAYLQLSSLTSEDTAVYYCATYGSLDYWGQGTTLTVSS VL: DIKMTQSPSSMYAFLGERVTITCKASQGINSFLTWFQQKPGKSPKTLIYRANRLVDGVPSRFSGSGSGQDYSLTISSLEYEDVGIYYCLQYDEFPRTFGGGTKLEIKR
-- reply 2.57
